Reference source: ChEMBL document CHEMBL4000202

test system: MCF7; assay: Cytotoxic activity against human MCF7 cells assessed as reduction in cell viability; format: functional, cell-based
pIC50: −log10 of the molar value.
parameter: pIC50

Ask: pIC50 for CCOCO[C@]12CCC[C@]3(CO1)c1ccc(C(C)C)c(OC)c1C(=O)C[C@@H]23 ?
Reply: 5.35 to 5.96

----------
system: PC-3; assay: Cytotoxic activity against human PC3 cells assessed as reduction in cell viability after 72 hrs by SRB assay; assay type: functional, cell-based; conditions: PC-3, 72 h
So I've got a bunch of compounds here, and I need their IC50 values.

Illustrative cases are given below, each with its answer.
compound	IC50
COc1c(C(C)C)ccc2c1CC[C@H]1C3=C(CC[C@]21CO)C(=O)OC3	> 100 µM
COC(=O)C1=C[C@@H]2CCc3c(ccc(C(C)C)c3OC)[C@@]2(C)CC1	> 100 µM
C=C1C(CO)=CC[C@]2(C)c3ccc(C(C)C)c(OC)c3C(=O)C[C@@H]12	> 100 µM

Report IC50 for each item below.
1. COc1c(C(C)C)ccc2c1CC=C1C3=C(CCC12C)C(=O)OC3 (single isomer, unassigned)
2. C=CCOc1cccc2c1C(=O)C[C@H]1C3=C(CC[C@]21C)C(=O)OC3
3. COc1c(C(C)C)ccc2c1CC[C@@]1(O)C3=C(CC[C@]21C)C(=O)OC3
4. CC(C)[C@]12O[C@H]1[C@@H]1O[C@]13[C@]1(O[C@H]1C[C@H]1C4=C(CC[C@@]13C)C(=O)OC4)[C@@H]2O [TRIPTOLIDE]
5. CC(C)(C)C(=O)OC[C@H]1[C@H](O)CC[C@]2(C)c3ccccc3CC[C@@H]12
6. COc1c(C(C)C)ccc2c1CC[C@H]1C(=O)CCC[C@]21C
7. C[C@]12CCC3=C(COC3=O)[C@@H]1CCc1ccccc12

Reply:
["48 µM", "> 100 µM", "> 100 µM", "0.0183 µM", "49.2 µM", "> 100 µM", "> 100 µM"]

----------
system: SK-OV-3; test: Cytotoxic activity against human SKOV3 cells assessed as reduction in cell viability after 72 hrs by SRB assay; type: functional, cell-based; conditions: SK-OV-3, 72 h
parameter: pIC50
Numbers only, as −log10 of the molar value.

compound	measuredResult
C=C1C(=C(SC)SC)CC[C@]2(COCOCC)c3ccc(C(C)C)c(OC)c3CC[C@@H]12	4.59

Ask: Sample COC(=O)[C@]1(C)CCC[C@]2(C)c3ccc(C(C)C)cc3CC[C@@H]12 [METHYL DEHYDROABIETATE] — what was its pIC50?
Reply: 4.29

----------
system: SK-OV-3; test: Cytotoxic activity against human SKOV3 cells assessed as reduction in cell viability after 72 hrs by SRB assay; format: functional, cell-based; conditions: SK-OV-3, 72 h
parameter: IC50

COc1ccc(COC[C@H]2[C@H](O)CC[C@]3(C)c4cccc(OC)c4CC[C@@H]23)cc1 6.19 µM
C=C1[C@H](O)CC[C@]2(C)c3ccc(C(C)C)c(OC)c3CC[C@@H]12 > 100 µM
COc1c(C(C)C)ccc2c1CC[C@H]1C(=O)CCC[C@]21CO[N+](=O)[O-] > 100 µM

Ask: Lab note: need IC50 with SK-OV-3 for entry COC(=O)[C@]1(C)CCC[C@]2(C)c3ccc(C(C)C)c([N+](=O)[O-])c3CC[C@@H]12 , please look it up.
Reply: > 100 µM

----------
test system: SK-OV-3; assay: Cytotoxic activity against human SKOV3 cells assessed as reduction in cell viability after 72 hrs by SRB assay; assay type: functional, cell-based; conditions: SK-OV-3, 72 h
Please go through the items and note down their IC50.
One number for each entry, in µM.

Record excerpt, results attached:
molecule	measuredOn	unitOfMeasure	IC50
CC(C)c1ccc2c(c1O)C(=O)C[C@H]1C3=C(CC[C@]21C)C(=O)OC3	SK-OV-3	µM	42.5
COC(=O)[C@]1(C)CCC[C@]2(C)c3cc([N+](=O)[O-])c(C(C)C)cc3CC[C@@H]12	SK-OV-3	µM	47.8
CC(C)[C@]12O[C@H]1[C@@H]1O[C@]13[C@]1(O[C@H]1C[C@H]1C4=C(CC[C@@]13C)C(=O)OC4)[C@@H]2O [TRIPTOLIDE]	SK-OV-3	µM	0.0072
COC(=O)[C@]1(C)CCC[C@@]2(C)[C@H]1CC=C1C=C(C(C)C)CC[C@@H]12 [METHYL ABIETATE]	SK-OV-3	µM	81.3
CC(C)(C)C(=O)OC[C@H]1[C@H](O)CC[C@]2(C)c3ccccc3CC[C@@H]12	SK-OV-3	µM	43.2
CC(C)c1ccc2c(c1)CC[C@H]1[C@](C)(C(=O)O)CCC[C@]21C [DEHYDROABIETIC ACID]	SK-OV-3	µM	66

// for each molecule in input: emit IC50
1. CC(C)c1ccc2c(c1O)C(=O)C[C@H]1C3=C(CC[C@]21CO)C(=O)OC3
2. COC(=O)[C@]1(C)CCC[C@]2(C)c3ccc(C(C)C)c(OC)c3[C@@H](O)C[C@@H]12

Reply:
1. 95.4
2. 51.9

I would be grateful if you could provide IC50 for each of the following entries.
1. C=C1[C@@H]2CC(=O)c3c(ccc(C(C)C)c3OC)[C@@]2(C)CC[C@@]1(O)CO
2. COC(=O)[C@]1(C)CCC[C@]2(C)c3ccc(C(C)C)c(N)c3CC[C@@H]12
3. COC(=O)[C@]1(C)CCC[C@]2(C)c3ccc(C(C)C)c(O)c3CC[C@@H]12
4. COc1c(C(C)C)ccc2c1CC=C1C3=C(CCC12C)C(=O)OC3 (single isomer, unassigned)
5. COC(=O)[C@]1(C)CCC[C@@]2(C)[C@H]1CC=C1[C@@H]2CC[C@](O)(C(C)C)[C@H]1O
6. COc1c(C(C)C)ccc2c1CC[C@H]1c3cocc3CC[C@]21C
7. C=CCc1ccc2c(c1O)C(=O)C[C@H]1C3=C(CC[C@]21C)C(=O)OC3

Reply:
59.6
37.8
42.9
24
92.9
21.3
39.4

Batch request: IC50 per item, same order as input.
1. C=C1C(=C(SC)SC)CC[C@]2(CO)c3ccc(C(C)C)c(OC)c3CC[C@@H]12
2. CCOCO[C@]12CCC[C@]3(CO1)c1ccc(C(C)C)c(OC)c1C(=O)C[C@@H]23

Reply:
1. 32.9
2. 1.57

Please state, for each entry, its recorded IC50.
1. C=C1C(=O)CC[C@]2(C)c3cccc(OC)c3CC[C@@H]12
2. COc1c(C(C)C)ccc2c1CC[C@@]1(O)C3=C(C(=O)OC3)[C@@H](O)C[C@]21C
3. COC(=O)[C@]1(C)CCC[C@]2(C)c3ccc(C(C)C)c(OC)c3CC[C@@H]12
4. O=c1[nH]cc(F)c(=O)[nH]1
5. C=CCc1cc(C(C)C)c(O)c2c1[C@@]1(C)CCC3=C(COC3=O)[C@@H]1CC2=O

Reply:
3.31
92.2
65.2
23.1
87.1

----------
Kindly state pIC50 for each of the entries shown.
system: PC-3; experiment: Cytotoxic activity against human PC3 cells assessed as reduction in cell viability after 72 hrs by SRB assay; assay type: functional, cell-based; details: PC-3, 72 h
pIC50: −log10 of the molar value.

// known answers, use as guide
C=CCOc1c(C(C)C)ccc2c1C(=O)C[C@H]1C3=C(CC[C@]21C)C(=O)OC3 4.01
COc1c(C(C)C)ccc2c1C=C[C@H]1C3=C(CC[C@]21C)C(=O)OC3 < 4.00
CC(C)C1=CC2=CC[C@@H]3[C@](C)(CCC[C@@]3(C)C(=O)O)[C@H]2CC1 < 4.00

Now consider the entry below.
Ask: Return reported pIC50; argument: COC(=O)[C@]1(C)CCC[C@@]2(C)[C@H]1CC=C1C(=O)[C@@](O)(C(C)C)CC[C@@H]12
Reply: < 4.00

----------
test system: SK-OV-3; assay: Cytotoxic activity against human SKOV3 cells assessed as reduction in cell viability after 72 hrs by SRB assay; type: functional, cell-based; details: SK-OV-3, 72 h
pIC50: −log10 of the molar value.
Field: pIC50. Provide a value for each of the molecules that follow.

Could you report pIC50 for every entry in the following list?
1. COC(=O)[C@]1(C)CCC[C@@]2(C)[C@H]1CC=C1C(=O)[C@@](O)(C(C)C)CC[C@@H]12
2. COc1cccc2c1CC[C@H]1[C@H]3COC(=O)[C@@]3(O)C(=O)C[C@]21C
3. CC(C)C1=CC2=CC[C@@H]3[C@](C)(CCC[C@@]3(C)C(=O)O)[C@H]2CC1 [ABIETIC ACID]

Reply:
1. 4.00
2. < 4.00
3. 4.04
